biological target: Bcl-xL (residues 1-209, loop 45-86 deleted) (Homo sapiens, UniProt Q07817, DEL45-86); construct: Bcl-xL (residues 1-209, loop 45-86 deleted); assay: biochemical; conditions: Table 3; 10 nM FITC-Bak, 4 nM Bcl-xL; top concentration 20 uM
Sequence (Q07817 other isoform, or with tags, fused parts or gaps DEL45-86): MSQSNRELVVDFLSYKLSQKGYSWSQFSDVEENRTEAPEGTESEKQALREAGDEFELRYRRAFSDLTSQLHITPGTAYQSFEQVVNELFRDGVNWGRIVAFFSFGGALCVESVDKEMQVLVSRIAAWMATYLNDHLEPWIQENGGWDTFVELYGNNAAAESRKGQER
pKi: −log10 of the molar value.
The molecules listed here are annotated with their pKi.

Example entries begin here.
molecule="O=C(O)c1c(CCCOc2ccc(Cl)c3ccccc23)c2cccc3c2n1CCS3 [Example 10]" assay_result=5.33
molecule="O=C(O)c1c(CCCOc2cccc3ccccc23)c2cccc3c2n1CCC[S+]3[O-] (stereo not drawn) [Example 20]" assay_result="< 4.70"
molecule="O=C(O)c1c(CCCOc2cccc3ccccc23)c2cccc3c2n1CCS3 [Example 7]" assay_result="< 4.70"
molecule="Cc1cc(OCCCc2c(C(=O)O)n3c4c(c(Cl)ccc24)OCC3)cc(C)c1Cl [Example 27]" assay_result="< 4.70"
molecule="Cc1cc(OCCCc2c(C(=O)O)n3c4c(cccc24)SCCC3)cc(C)c1Cl [Example 23]" assay_result="< 4.70"

Then this molecule:
Data point: Cc1cc(OCCCc2c(C(=O)O)n3c4c(cccc24)SCC3)cc(C)c1Cl [Example 13] ; pKi = < 4.70

====

Target: recombinant Mcl-1 (residues 172-327) (Homo sapiens)
Construct: 14 nM recombinant Mcl-1 (residues 172-327) were added to assay buffer
Assay: Bak peptide binding assay: fluorescence polarization anisotropy competition (FITC-Bak BH3 peptide)
Conditions: Ki For Inhibition of Mcl-I Protein, Table 2, binned range; 10 nM FITC-Bak, 14 nM Mcl-1; Ki converted from IC50
Experimental: Bak Peptide Binding Assay Compound affinity was measured using a fluorescence polarization anisotropy competition assay. Anisotropy measurements were carried out in 384-well, black, flat-bottom plates (Greiner Bio-one, Monroe, N.C., USA). […] Compounds are diluted in DMSO in a 10-point, 3-fold serial dilution scheme. […] Anisotropy is measured at excitation wavelength 480 nm and emission wavelength 535 nm using an EnVision Multi-label plate reader (PerkinElmer, Wellesley, Mass., USA). […]
OBSERVATION TYPE: Ki

Example entries begin here.
compound=CS(=O)(=O)NC(=O)c1c(CCOc2cccc3ccccc23)c2cccc3c2n1CCS3 assay_result="1000 to 9990 nM"
compound=O=C(O)c1c(CCOc2cccc3ccccc23)c2cccc3c2n1CCC3 assay_result="1000 to 9990 nM"
compound=O=C(O)c1c(CCCOc2cccc3ccccc23)c2cccc3c2n1CCS3(=O)=O assay_result="≤ 100 nM"
compound=Cc1cc(OCCCc2c(C(=O)O)n3c4c(c(Cl)ccc24)OCC3)cc(C)c1Cl assay_result="≤ 100 nM"
compound=O=C(O)c1c(CCCOc2cccc3ccccc23)c2cccc3c2n1CCCS3 assay_result="101 to 299 nM"

Data point: O=C(NS(=O)(=O)c1ccccc1)c1c(CCOc2cccc3ccccc23)c2cccc3c2n1CCO3 ; Ki = 501 to 999 nM

====

molecular target: recombinant Mcl-1 (residues 172-327) (Homo sapiens, UniProt Q07820); construct: 14 nM recombinant Mcl-1 (residues 172-327) were added to assay buffer; assay: Bak peptide binding assay: fluorescence polarization anisotropy competition (FITC-Bak BH3 peptide); conditions: Ki For Inhibition of Mcl-I Protein, Table 2, binned range; 10 nM FITC-Bak, 14 nM Mcl-1; Ki converted from IC50
Sequence (Q07820 172-327): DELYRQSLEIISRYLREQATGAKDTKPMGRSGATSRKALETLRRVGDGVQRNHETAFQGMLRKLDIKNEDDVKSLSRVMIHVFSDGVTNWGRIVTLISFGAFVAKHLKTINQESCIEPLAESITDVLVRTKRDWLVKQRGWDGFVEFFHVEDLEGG
pKi: −log10 of the molar value.
The molecules listed here are annotated with their pKi.

smiles_code=Cc1cc(OCCCc2c(C(=O)O)n3c4c(cccc24)OCC3)cc(C)c1Cl assay_result="≥ 7.00"
smiles_code=O=C(O)c1c(CCCOc2cccc3ccccc23)c2cccc3c2n1CCS3 assay_result="6.52 to 7.00"
smiles_code=Cc1cc(OCCCc2c(C(=O)O)n3c4c(c(Cl)ccc24)CCC3)cc(C)c1Cl assay_result="≥ 7.00"

Data point: Cc1cc(OCCCc2c(C(=O)O)n3c4c(cccc24)SCCC3)cc(C)c1Cl ; pKi = ≥ 7.00

Data point: O=C(O)c1c(CCOc2cccc3ccccc23)c2cccc3c2n1CCO3 ; pKi = 5.00 to 6.00

Data point: O=C(O)c1c(CCCOc2cccc3ccccc23)c2cccc3c2n1CCCS3(=O)=O ; pKi = ≥ 7.00

Data point: Cc1cc(OCCCc2c(C(=O)O)n3c4c(cccc24)SCC3)ccc1Cl ; pKi = 6.52 to 7.00

Data point: Cc1cc(OCCCc2c(C(=O)NS(=O)(=O)c3ccccc3)n3c4c(cccc24)SCCC3)cc(C)c1Cl ; pKi = 6.52 to 7.00
